- Tested on: wild oat
- PROTOCOL_NOTES: Test B pre/postemergence wild oat
- Type: in vivo, Avena fatua
- MEASUREMENT_CONDITIONS: Rate 250 g/ha, Postemergence; scale of 0 to 10 where 0 is no effect and 10 is complete control
QUANTITY_KIND: Plant response rating, Wild oats

[
  {
    "MOLECULE": "CCOC(=O)C=C(Cn1c(=O)on(C(=O)N(c2ccc(F)cc2F)C(C)C)c1=O)OCC",
    "QUANTITY_KIND": "Plant response rating, Wild oats",
    "VAL": 0
  },
  {
    "MOLECULE": "CC(C)N(C(=O)n1oc(=O)n(CC2CC2)c1=O)c1ccccc1",
    "QUANTITY_KIND": "Plant response rating, Wild oats",
    "VAL": 2
  },
  {
    "MOLECULE": "CC(C)N(C(=O)n1oc(=O)n(C2CCCC2)c1=O)c1ccc(F)cc1F",
    "QUANTITY_KIND": "Plant response rating, Wild oats",
    "VAL": 0
  },
  {
    "MOLECULE": "CC(C)N(C(=O)n1oc(=O)n(CCCN(C)C)c1=O)c1ccc(F)cc1",
    "QUANTITY_KIND": "Plant response rating, Wild oats",
    "VAL": 0
  },
  {
    "MOLECULE": "CC(=O)C(C)n1c(=O)on(C(=O)N(c2ccccc2)C(C)C)c1=O (centres unmarked)",
    "QUANTITY_KIND": "Plant response rating, Wild oats",
    "VAL": 0
  }
]
